Biological target: FLAG-tagged Vanin-1 (AA 22-493, T26I) (Homo sapiens (Human), UniProt O95497, T26I)
Sequence (O95497 22-493 T26I): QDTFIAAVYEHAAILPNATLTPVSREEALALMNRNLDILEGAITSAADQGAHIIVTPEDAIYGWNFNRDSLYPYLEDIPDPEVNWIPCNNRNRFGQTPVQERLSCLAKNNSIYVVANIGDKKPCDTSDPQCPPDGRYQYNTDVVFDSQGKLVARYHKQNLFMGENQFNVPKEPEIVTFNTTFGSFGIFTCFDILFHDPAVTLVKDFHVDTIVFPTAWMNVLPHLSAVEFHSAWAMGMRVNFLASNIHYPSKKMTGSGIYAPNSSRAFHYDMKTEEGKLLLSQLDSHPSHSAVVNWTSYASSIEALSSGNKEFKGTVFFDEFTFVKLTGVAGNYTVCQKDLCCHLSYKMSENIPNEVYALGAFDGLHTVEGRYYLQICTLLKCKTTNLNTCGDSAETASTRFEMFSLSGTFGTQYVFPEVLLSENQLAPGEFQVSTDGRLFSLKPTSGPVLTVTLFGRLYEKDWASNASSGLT
Test: Vanin-1 enzymatic assay
Assay type: biochemical
Settings: 0.1 nM Vanin-1, 3 μM D-pantethine, pantothenic acid formation by RapidFire MS; geometric mean if multiple measurements; read-out: VNN 1 IC50
Threshold-based label: IC50 under 0.4 nM gives label 1, IC50 not under 0.4 nM gives label 0.

{"compound": "CN(C(=O)CN1CCOCC1)[C@H]1CCN(C(=O)c2ccc(NC(C)(C)C)nc2)C1", "discrete.label": "label 0"}
{"compound": "CN(C(=O)C1CC1)[C@H]1CCN(C(=O)c2ccc(NC3(C)CCOCC3)nc2)C1", "discrete.label": "label 0"}
{"compound": "CN(C(=O)c1ccc(Cl)s1)[C@H]1CCN(C(=O)c2ccc(NC(C)(C)C)nc2)C1", "discrete.label": "label 1"}
{"compound": "CN(C(=O)C1(C#N)CC1)[C@H]1CCN(C(=O)c2ccc(NC(C)(C)C)nc2)C1", "discrete.label": "label 1"}
{"compound": "CN(C(=O)C1CC1)[C@H]1CCN(C(=O)c2ccc(NC3(C)CCC3)nc2)C1", "discrete.label": "label 1"}
{"compound": "CC(C)(C)Nc1ccc(C(=O)N2CC(C)(c3ccccn3)C2)cn1", "discrete.label": "label 1"}
{"compound": "CC(=O)N(C)[C@H]1CCN(C(=O)c2ccc(NC(C)(C)CCO)nc2)C1", "discrete.label": "label 1"}
{"compound": "CC(=O)N(C)[C@H]1CCN(C(=O)c2ccc(NC(C)(C)C)nc2)C1", "discrete.label": "label 0"}
{"compound": "CCC(C)(C)Nc1ccc(C(=O)N2CC[C@H](N(C)C(C)=O)C2)cn1", "discrete.label": "label 1"}
{"compound": "CC1CN([C@H]2CCN(C(=O)c3ccc(NC(C)(C)C)nc3)C2)C(=O)O1 (stereo partly drawn)", "discrete.label": "label 0"}
{"compound": "CC1(C#N)CCN(C(=O)c2ccc(NC(C)(C)C)nc2)C1 (single isomer, unassigned)", "discrete.label": "label 1"}

====

Collected IC50 values appear next to each entry.
Molecular target: FLAG-tagged Vanin-1 (AA 22-493, T26I) (Homo sapiens (Human), UniProt O95497, T26I)
Experiment: Vanin-1 enzymatic assay
Format: biochemical
Details: 0.1 nM Vanin-1, 3 μM D-pantethine, pantothenic acid formation by RapidFire MS; geometric mean if multiple measurements; read-out: VNN 1 IC50

{"molecule": "CC(=O)N(C)[C@H]1CCN(C(=O)c2ccc(NC(C)(C)CCn3cncn3)nc2)C1 [Example 3.4]", "IC50": "2.1 nM"}
{"molecule": "Cc1cc(C(=O)N(C)[C@H]2CCN(C(=O)c3ccc(NC(C)(C)C)nc3)C2)[nH]n1 [Example 1.12]", "IC50": "0.4 nM"}
{"molecule": "CN(C(=O)N1CCOCC1)[C@H]1CCN(C(=O)c2ccc(NC(C)(C)C)nc2)C1 [Example 4.1]", "IC50": "0.3 nM"}
{"molecule": "CN(C(=O)C1CC1)[C@H]1CCN(C(=O)c2ccc(NC3(C)CCCC3)nc2)C1 [Example 2.3]", "IC50": "0.7 nM"}
{"molecule": "CN(C(=O)C1CC1)[C@H]1CCN(C(=O)c2ccc(NC34CC(C3)C4)nc2)C1 [Example 2.6]", "IC50": "0.4 nM"}
{"molecule": "CC(C)(C)Nc1ccc(C(=O)N2CC[C@H](N3CCCCC3=O)C2)cn1 [Example 1.14]", "IC50": "0.8 nM"}
{"molecule": "CN(C(=O)[C@@H]1CCCO1)[C@H]1CCN(C(=O)c2ccc(NC(C)(C)C)nc2)C1 [Example 1.3]", "IC50": "0.3 nM"}
{"molecule": "CN(C(=O)C1CCC1)[C@H]1CCN(C(=O)c2ccc(NC(C)(C)C)nc2)C1 [Example 1.1]", "IC50": "0.2 nM"}
{"molecule": "CN(c1ncccn1)[C@H]1CCN(C(=O)c2ccc(NC(C)(C)C)nc2)C1 [Example 1.13]", "IC50": "0.4 nM"}
{"molecule": "CN(C(=O)c1cc(C(F)(F)F)nn1C)[C@H]1CCN(C(=O)c2ccc(NC(C)(C)C)nc2)C1 [Example 1.7]", "IC50": "0.3 nM"}
{"molecule": "CC(C)(C)Nc1ccc(C(=O)N2CC[C@H](N3CCOC3=O)C2)cn1 [Example 1.6]", "IC50": "0.3 nM"}
{"molecule": "CN(C(=O)C1CC1)[C@H]1CCN(C(=O)c2ccc(NC(C)(C)C)nc2)C1 [Example 1.5]", "IC50": "0.3 nM"}
{"molecule": "CN(C(=O)C1CC(F)(F)C1)[C@H]1CCN(C(=O)c2ccc(NC(C)(C)C)nc2)C1 [Example 1.2]", "IC50": "0.2 nM"}
{"molecule": "CN1CCN(C(=O)N(C)[C@H]2CCN(C(=O)c3ccc(NC(C)(C)C)nc3)C2)CC1 [Example 4.2]", "IC50": "1.2 nM"}
{"molecule": "CC1(Nc2ccc(C(=O)N3CC[C@H](N4CCCC4=O)C3)cn2)CCCCC1 [Example 2.4]", "IC50": "1.7 nM"}
{"molecule": "CN(C(=O)C1CCOC1)[C@H]1CCN(C(=O)c2ccc(NC(C)(C)C)nc2)C1 (some centres unmarked) [Example 1.10]", "IC50": "0.4 nM"}
{"molecule": "CN(C(=O)[C@H]1CCCO1)[C@H]1CCN(C(=O)c2ccc(NC(C)(C)C)nc2)C1 [Example 1.15]", "IC50": "1 nM"}

Reference for the values: patent US11078182B2
